# credit: PubChem BioAssay (NCI)

Tested on: COLO 205 colon
protocol: NCI tumour cell line growth inhibition, 48 h
Give measured GI50 for each item. Keep answers brief.

The value of GI50 measured for the compound COc1ccc(-c2c(C#N)c(N)nc3c2CCCc2ccc(F)cc2-3)cc1OC turned out to be 4.89 µM

The recorded GI50 for C1C[OH+]CC[OH+]CC[OH+]CC[OH+]CC[OH+]CC[OH+]1.[Cl-].[Ta+5] is > 100 µM

The recorded GI50 for entry Nc1c(O)c(S(=O)(=O)O)c(O)c2c1C(=O)c1ccccc1C2=O equals 1.61 µM

Entry under test: COC1CCC(n2c([C@@H]3CCCC(=O)N3c3ccc(F)c(F)c3)nc3cc(-c4c(C)noc4C)ccc32)CC1 (stereo partly specified) . Its GI50 was 2.16 µM

compound CC(C)[C@@H](CS(=O)(=O)C(C)C)N1C(=O)[C@@](C)(CC(=O)O)C[C@H](c2cccc(Cl)c2)[C@H]1c1ccc(Cl)cc1 , GI50 observed: 14.7 µM

For CC(C)(C)n1cc(-c2ccnc(NCCNS(=O)(=O)c3cccc4ccccc34)c2)c(-c2cccc(F)c2)n1 the compound record lists GI50 as 8.98 µM
